So I've got a bunch of compounds here, and I need their Cmax values.
assay.details: Mouse pharmacokinetics after a single oral dose
Assay type: in vivo
experimental.context: male, mouse, in vivo, po, 100 mg/kg, fasted male mice, single p.o. dose 100 mg/kg, mean ± SD, n = 3; read-out: Cmax, maximum plasma-concentration

Looking for the measured Cmax of CC(C)n1ncc2c1C(=O)CC1(CCN(C(=O)c3cc4ncccc4[nH]3)CC1)C2 , can you help?
760 to 1070 ng/mL

Looking for the measured Cmax of COc1ccc2ncc(C(=O)N3CCC4(CC3)CC(=O)c3c(cnn3C(C)C)C4)cc2c1 , can you help?
760 to 1070 ng/mL

---

assay.details: Mouse pharmacokinetics after a single oral dose
Type: in vivo
experimental.context: mouse, in vivo, po; fasted male mice, single p.o. dose 100 mg/kg, mean ± SD, n = 3; read-out: Tmax, time to reach the maximum plasma-concentration
measurement.name: Tmax (min)
Give the value in min but do not write min after it.

Looking for the measured Tmax of COc1ccc2ncc(C(=O)N3CCC4(CC3)CC(=O)c3c(cnn3C(C)C)C4)cc2c1 [PF-06256254] , can you help?
33

Looking for the measured Tmax of CC(C)n1ncc2c1C(=O)CC1(CCN(C(=O)c3cc4ncccc4[nH]3)CC1)C2 [PF-05206574] , can you help?
23

---

study.target: UniProt:Q1HEC0
Sequence (Q1HEC0 17-2455): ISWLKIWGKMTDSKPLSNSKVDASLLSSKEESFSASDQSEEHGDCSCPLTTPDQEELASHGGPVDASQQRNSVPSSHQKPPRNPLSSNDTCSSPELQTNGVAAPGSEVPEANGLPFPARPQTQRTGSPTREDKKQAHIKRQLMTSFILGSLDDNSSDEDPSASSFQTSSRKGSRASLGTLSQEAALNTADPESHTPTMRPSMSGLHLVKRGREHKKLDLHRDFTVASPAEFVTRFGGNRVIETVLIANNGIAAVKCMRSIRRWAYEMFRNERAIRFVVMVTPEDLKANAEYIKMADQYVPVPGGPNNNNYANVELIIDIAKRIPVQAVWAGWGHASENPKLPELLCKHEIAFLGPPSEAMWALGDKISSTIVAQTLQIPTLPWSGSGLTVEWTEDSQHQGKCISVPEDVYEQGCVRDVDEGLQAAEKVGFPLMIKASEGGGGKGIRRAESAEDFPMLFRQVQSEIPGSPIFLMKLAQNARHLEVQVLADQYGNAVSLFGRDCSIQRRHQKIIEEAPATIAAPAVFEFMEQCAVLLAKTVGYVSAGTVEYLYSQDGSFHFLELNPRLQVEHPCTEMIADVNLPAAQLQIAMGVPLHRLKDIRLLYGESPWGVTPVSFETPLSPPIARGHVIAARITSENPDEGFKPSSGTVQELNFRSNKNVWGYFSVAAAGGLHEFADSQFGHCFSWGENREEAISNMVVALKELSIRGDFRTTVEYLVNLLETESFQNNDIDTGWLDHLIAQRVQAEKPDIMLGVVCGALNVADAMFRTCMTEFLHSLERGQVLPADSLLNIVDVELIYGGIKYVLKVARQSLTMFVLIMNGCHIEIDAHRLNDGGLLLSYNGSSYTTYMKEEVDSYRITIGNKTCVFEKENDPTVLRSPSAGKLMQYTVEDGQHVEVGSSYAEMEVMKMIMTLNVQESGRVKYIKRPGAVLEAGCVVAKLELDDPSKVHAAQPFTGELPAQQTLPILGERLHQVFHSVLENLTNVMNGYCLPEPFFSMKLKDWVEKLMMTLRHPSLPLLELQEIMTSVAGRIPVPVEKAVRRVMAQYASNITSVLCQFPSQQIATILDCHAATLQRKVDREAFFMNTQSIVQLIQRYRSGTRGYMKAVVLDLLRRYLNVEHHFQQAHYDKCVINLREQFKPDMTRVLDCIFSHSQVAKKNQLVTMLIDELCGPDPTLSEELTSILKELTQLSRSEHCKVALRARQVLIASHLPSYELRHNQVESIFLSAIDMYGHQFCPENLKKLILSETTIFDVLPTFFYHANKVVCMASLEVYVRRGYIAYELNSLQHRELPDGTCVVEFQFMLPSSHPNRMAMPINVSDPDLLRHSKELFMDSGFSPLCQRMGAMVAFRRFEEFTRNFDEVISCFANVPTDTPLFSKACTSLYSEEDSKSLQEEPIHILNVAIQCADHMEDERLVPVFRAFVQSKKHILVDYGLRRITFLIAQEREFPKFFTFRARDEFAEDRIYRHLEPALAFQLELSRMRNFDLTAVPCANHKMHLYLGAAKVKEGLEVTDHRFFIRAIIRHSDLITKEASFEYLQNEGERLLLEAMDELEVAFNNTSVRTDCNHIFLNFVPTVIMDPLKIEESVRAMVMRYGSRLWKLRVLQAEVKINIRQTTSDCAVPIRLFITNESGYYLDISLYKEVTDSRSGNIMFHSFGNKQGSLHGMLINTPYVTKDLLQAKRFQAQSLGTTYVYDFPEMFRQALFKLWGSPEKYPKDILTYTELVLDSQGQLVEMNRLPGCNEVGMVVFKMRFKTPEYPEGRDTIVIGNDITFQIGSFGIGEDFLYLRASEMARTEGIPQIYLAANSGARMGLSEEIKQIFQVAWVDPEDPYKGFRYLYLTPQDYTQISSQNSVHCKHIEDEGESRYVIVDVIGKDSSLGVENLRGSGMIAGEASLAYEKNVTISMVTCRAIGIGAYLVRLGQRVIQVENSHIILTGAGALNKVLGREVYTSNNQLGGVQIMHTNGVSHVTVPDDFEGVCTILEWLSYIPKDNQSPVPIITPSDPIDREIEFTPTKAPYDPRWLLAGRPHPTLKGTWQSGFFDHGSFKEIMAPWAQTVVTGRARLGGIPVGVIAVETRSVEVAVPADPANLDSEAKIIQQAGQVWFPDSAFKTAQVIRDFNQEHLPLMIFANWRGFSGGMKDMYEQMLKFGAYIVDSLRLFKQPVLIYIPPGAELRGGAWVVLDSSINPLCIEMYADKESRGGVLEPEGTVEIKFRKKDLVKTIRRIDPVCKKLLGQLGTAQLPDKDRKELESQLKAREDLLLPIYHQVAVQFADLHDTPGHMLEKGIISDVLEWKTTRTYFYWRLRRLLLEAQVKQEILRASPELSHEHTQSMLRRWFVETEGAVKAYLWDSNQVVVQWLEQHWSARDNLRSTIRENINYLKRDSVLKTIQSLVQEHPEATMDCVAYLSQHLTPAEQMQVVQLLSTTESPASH
So I've got a bunch of molecules here, and I need their pIC50 values.
Just so you know, pIC50 here is -log10 of the concentration in molar units; reply with that number alone.

Looking for the measured pIC50 of CC(C)n1ncc2c1C(=O)CC1(CCN(C(=O)c3cc4ncccc4[nH]3)CC1)C2 , can you help?
7.74

Looking for the measured pIC50 of Cc1nc2ccc(C(=O)N3CCC4(CC3)CC(=O)c3c(cnn3C(C)C)C4)cc2[nH]1 , can you help?
7.30

Looking for the measured pIC50 of COc1ccc2ncc(C(=O)N3CCC4(CC3)CC(=O)c3c(cnn3C(C)C)C4)cc2c1 , can you help?
7.82

---

study.target: UniProtKB O00763
Sequence (O00763 whole entry): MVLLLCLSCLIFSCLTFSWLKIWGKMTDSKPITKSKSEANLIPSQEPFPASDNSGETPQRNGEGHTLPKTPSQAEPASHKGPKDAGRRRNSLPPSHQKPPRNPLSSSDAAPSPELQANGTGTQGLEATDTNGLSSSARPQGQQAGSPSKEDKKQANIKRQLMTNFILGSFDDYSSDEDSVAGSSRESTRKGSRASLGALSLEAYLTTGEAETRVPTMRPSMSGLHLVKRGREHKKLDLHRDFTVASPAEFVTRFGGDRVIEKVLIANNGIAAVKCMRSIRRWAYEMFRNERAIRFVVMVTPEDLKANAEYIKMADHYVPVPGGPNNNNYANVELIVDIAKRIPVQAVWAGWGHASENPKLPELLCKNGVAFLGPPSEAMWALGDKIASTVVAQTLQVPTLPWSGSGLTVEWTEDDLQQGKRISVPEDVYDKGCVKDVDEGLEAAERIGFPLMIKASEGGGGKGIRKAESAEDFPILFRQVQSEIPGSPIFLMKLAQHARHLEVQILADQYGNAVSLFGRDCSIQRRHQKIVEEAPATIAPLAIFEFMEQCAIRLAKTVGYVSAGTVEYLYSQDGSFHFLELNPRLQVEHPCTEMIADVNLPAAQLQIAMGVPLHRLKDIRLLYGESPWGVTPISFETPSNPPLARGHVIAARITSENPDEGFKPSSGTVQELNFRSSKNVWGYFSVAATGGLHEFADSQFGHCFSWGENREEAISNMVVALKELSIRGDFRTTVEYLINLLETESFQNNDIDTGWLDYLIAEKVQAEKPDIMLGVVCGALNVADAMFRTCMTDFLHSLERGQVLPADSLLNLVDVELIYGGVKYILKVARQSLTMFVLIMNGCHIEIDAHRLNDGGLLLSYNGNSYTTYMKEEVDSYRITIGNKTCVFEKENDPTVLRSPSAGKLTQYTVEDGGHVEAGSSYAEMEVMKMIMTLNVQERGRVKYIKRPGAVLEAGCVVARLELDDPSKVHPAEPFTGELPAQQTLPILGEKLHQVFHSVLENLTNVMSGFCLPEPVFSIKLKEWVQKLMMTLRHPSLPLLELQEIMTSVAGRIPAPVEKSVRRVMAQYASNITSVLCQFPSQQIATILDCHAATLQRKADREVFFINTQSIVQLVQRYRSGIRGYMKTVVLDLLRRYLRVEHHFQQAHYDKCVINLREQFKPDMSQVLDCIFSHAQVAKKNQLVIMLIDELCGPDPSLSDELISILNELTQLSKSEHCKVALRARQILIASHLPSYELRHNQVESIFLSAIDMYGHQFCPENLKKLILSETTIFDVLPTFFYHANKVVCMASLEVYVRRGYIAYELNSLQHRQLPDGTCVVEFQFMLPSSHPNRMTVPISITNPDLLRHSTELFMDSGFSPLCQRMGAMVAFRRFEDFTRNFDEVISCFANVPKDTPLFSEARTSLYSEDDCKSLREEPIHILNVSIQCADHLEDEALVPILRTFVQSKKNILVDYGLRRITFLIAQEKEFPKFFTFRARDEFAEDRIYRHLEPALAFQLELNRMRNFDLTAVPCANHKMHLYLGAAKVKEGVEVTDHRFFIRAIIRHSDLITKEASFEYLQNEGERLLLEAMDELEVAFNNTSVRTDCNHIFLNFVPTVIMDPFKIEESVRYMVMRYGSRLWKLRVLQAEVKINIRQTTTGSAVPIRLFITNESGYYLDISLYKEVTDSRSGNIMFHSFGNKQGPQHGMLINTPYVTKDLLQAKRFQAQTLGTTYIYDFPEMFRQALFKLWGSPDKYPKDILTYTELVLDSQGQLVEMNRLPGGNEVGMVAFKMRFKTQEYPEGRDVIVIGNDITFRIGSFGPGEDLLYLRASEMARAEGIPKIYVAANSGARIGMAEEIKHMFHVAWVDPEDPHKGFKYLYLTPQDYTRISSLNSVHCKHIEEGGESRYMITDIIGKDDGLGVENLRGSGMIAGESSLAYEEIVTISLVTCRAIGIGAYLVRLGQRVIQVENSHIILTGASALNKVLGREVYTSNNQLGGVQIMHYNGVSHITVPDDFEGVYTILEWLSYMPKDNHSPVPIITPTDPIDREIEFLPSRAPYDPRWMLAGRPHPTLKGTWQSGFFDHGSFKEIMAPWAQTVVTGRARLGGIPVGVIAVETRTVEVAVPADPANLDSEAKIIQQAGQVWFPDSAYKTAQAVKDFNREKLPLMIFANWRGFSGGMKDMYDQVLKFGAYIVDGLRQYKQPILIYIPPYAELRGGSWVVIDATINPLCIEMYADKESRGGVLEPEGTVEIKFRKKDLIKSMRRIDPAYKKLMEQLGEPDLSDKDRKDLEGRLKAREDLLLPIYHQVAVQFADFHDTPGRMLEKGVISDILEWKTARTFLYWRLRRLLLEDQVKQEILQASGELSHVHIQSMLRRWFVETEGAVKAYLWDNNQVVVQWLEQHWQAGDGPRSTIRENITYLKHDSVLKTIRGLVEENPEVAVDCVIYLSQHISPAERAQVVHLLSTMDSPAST
assay.details: Radiometric ACC inhibition assay, human ACC2
Type: biochemical
experimental.context: radiometric assay; geometric mean ± SEM, n = 3; read-out: IC50 human ACC2
measurement.name: IC50 (nM)
Give the value in nM but do not write nM after it.

Looking for the measured IC50 of Cc1nc2ccc(C(=O)N3CCC4(CC3)CC(=O)c3c(cnn3C(C)C)C4)cc2[nH]1 , can you help?
33

---

study.target: human ACC1 (Homo sapiens, UniProt Q13085)
assay.details: Radiometric ACC inhibition assay, human ACC1
Type: biochemical
experimental.context: radiometric assay; geometric mean ± SEM, n = 3; read-out: IC50 human ACC1
Procedure: (-)-Epicgallocathechin gallate, EGCG (catalog no. 0981 S) was from Extrasynthese (Genay, France). […] Apparent permeability was assessed in low-efflux MDCKII cells. In vitro potencies of the inhibitors were determined using a radiometric assay. For tissue culture experiments, drugs were suspended in DMSO. […] The amount of ATP in each sample was determined by luminescence measurement using white microplates and a TECAN Genius (Zurich, Switzerland) microplate reader.
measurement.name: IC50 (nM)
Give the value in nM but do not write nM after it.

Looking for the measured IC50 of Cc1nc2ccc(C(=O)N3CCC4(CC3)CC(=O)c3c(cnn3C(C)C)C4)cc2[nH]1 [PF-05175157] , can you help?
27

---

assay.details: Cell viability by ATP measurement (Cell Titer Glo) in uninfected Vero cells
experimental.context: African green monkey
measurement.name: CC50 at 48 h

Looking for the measured CC50 at 48 h of Cc1nc2ccc(C(=O)N3CCC4(CC3)CC(=O)c3c(cnn3C(C)C)C4)cc2[nH]1 , can you help?
236 µM

Looking for the measured CC50 at 48 h of COc1ccc2ncc(C(=O)N3CCC4(CC3)CC(=O)c3c(cnn3C(C)C)C4)cc2c1 , can you help?
202 µM

Looking for the measured CC50 at 48 h of CC(C)n1ncc2c1C(=O)CC1(CCN(C(=O)c3cc4ncccc4[nH]3)CC1)C2 , can you help?
415 µM

---

assay.details: Mouse pharmacokinetics after a single oral dose
Type: in vivo
experimental.context: mouse, in vivo, po; fasted male mice, single p.o. dose 15 mg/kg, 0.5% methyl cellulose suspension, mean ± SD, n = 3; read-out: AUC(Exp), area under the plasma-concentration-time curve
Experimental: Pharmacokinetics was analyzed after a single oral (p.o.) dose of the compounds (in a 0.5% methyl cellulose suspension) administered to fasted male mice. […] Antiviral activity in vivo was determined using eight-week-old Swiss albino CD-1 female mice (Envigo, Huntingdon, UK). […] Control mice were treated in parallel with drug vehicle (carboxymethylcellulose). […] Animals were monitored daily and received water and food ad libitum.
measurement.name: AUC (ng·h/mL)
Give the value in ng·h/mL but do not write ng·h/mL after it.

Looking for the measured AUC of Cc1nc2ccc(C(=O)N3CCC4(CC3)CC(=O)c3c(cnn3C(C)C)C4)cc2[nH]1 , can you help?
2170
